biological target: CPSF160FL;WDR33 M1-K410 K46A/R47A;CPSF30 ZF1-3 (Homo sapiens;Homo sapiens;Homo sapiens, UniProt Q10570;Q9C0J8;O95639-3 1-1443;1-410;1-117, |K46A;R47A|); test: fluorescence polarization; 20 mM Tris pH 7.5, 150 mM NaCl, 1 mM DTT, 0.05% Tween 20, 25 C, 0.1 nM labelled RNA; details: protein: recombinant;recombinant;recombinant; tags: His6 (438B vector); copies: 1;1;1; label: 5' Atto532
Sequence (Q10570 whole entry, chain 1 of 3): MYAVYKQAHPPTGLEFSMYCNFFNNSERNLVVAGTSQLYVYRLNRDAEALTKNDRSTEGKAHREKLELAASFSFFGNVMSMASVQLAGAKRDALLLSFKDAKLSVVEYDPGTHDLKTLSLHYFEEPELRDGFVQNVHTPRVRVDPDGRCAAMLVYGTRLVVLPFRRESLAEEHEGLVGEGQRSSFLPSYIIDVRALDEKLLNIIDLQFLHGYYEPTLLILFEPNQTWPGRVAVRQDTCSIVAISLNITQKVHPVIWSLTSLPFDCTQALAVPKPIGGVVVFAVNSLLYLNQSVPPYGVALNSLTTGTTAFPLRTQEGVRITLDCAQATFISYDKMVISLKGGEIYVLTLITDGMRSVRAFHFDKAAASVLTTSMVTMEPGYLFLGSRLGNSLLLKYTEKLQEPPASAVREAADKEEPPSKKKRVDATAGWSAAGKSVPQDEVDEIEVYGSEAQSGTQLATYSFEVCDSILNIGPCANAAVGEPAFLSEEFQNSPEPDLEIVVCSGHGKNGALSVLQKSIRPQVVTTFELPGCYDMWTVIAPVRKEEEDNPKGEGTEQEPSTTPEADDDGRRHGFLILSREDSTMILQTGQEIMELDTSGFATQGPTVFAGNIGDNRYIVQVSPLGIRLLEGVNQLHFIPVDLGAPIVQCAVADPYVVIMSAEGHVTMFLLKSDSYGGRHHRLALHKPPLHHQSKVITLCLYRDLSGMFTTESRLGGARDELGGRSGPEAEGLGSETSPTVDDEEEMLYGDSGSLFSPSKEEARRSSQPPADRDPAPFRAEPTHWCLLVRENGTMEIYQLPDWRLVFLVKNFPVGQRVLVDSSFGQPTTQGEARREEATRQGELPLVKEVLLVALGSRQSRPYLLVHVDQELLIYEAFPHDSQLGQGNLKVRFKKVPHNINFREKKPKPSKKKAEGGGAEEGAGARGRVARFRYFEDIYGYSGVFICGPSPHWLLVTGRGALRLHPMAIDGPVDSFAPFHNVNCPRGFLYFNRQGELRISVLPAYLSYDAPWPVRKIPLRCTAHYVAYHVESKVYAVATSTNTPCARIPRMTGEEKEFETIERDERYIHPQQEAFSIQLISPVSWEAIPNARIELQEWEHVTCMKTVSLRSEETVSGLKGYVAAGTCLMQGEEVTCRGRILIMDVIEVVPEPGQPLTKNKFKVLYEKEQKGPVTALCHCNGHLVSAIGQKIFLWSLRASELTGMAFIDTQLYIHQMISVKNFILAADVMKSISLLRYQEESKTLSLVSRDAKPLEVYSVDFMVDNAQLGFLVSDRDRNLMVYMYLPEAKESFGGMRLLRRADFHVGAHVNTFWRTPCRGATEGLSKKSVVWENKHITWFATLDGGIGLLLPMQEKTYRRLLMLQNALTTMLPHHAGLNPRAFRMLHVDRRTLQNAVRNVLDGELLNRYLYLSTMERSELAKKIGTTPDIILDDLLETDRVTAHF
Sequence (Q9C0J8 1-410 K46A/R47A, chain 2 of 3): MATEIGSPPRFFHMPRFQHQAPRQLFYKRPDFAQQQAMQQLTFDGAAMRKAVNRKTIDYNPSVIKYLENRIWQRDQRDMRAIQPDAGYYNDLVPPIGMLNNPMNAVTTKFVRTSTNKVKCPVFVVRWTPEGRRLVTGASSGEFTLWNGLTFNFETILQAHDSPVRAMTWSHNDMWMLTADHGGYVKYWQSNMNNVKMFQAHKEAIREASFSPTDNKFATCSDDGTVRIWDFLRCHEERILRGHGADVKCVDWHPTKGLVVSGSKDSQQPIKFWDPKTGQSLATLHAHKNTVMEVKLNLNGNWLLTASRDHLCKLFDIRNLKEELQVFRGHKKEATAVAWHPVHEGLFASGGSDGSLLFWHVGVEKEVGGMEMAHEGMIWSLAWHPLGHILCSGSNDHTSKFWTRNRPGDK
Sequence (O95639 1-117, stated change not applied, chain 3 of 3): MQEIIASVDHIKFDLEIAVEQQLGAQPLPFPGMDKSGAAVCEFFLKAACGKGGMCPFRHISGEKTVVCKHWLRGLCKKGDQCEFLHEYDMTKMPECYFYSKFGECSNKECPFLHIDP
quantity measured: pKd
The quantity pKd is defined as the negative base-10 logarithm of the molar concentration.

What value of measured pKd is listed for CACACAAUAAAGGCAA (ssRNA) [L3 PAS RNA wild-type (AAUAAA)] ?
8.11
